Species: Mus musculus
Assay: Toxic dose in L1210 lymphoid leukemic mice
Format: toxicity, organism-based
Conditions: in vivo
Give measured Toxic dose for each item. Keep answers brief.
Answers are plain numbers, in mg/kg.

# annotated cases, reported Toxic dose shown
[[record]]
molecule = "CC[C@@]1(O)C(=O)OCc2c1cc1n(c2=O)Cc2cc3c(C)cccc3nc2-1"
reported_measurement = 12

[[record]]
molecule = "CCC1(O)C(=O)OCc2c1cc1n(c2=O)Cc2cc3cc([N+](=O)[O-])ccc3nc2-1 (racemic)"
reported_measurement = 31

[[record]]
molecule = "CC[C@@]1(O)C(=O)OCc2c1cc1n(c2=O)Cc2cc3ccccc3nc2-1"
reported_measurement = 10

[[record]]
molecule = "CCC1(O)C(=O)OCc2c1cc1n(c2=O)Cc2cc3c([N+](=O)[O-])cccc3nc2-1 (configuration not stated)"
reported_measurement = 40

[[record]]
molecule = "CC[C@@]1(O)C(=O)OCc2c1cc1n(c2=O)Cc2cc3c(N)cccc3nc2-1"
reported_measurement = 10

[[record]]
molecule = "CCC1(O)C(=O)OCc2c1cc1n(c2=O)Cc2cc3cc4c(cc3nc2-1)OCO4 (racemic)"
reported_measurement = 8


q: Retrieve Toxic dose measured for CCC1(O)C(=O)OCc2c1cc1n(c2=O)Cc2cc3cc(N)ccc3nc2-1 (racemic) and print it.
a: 6.25

* * *

Give measured pIC50 for each item. Keep answers brief.
Target: UniProt P11387
Experiment: Inhibition of Topoisomerase I by cleavage complex formation in human HL-60 cells
Type: cell-based
Answers are plain numbers, as −log10 of the molar value.

[[record]]
molecule = "CCC1(O)C(=O)OCc2c1cc1n(c2=O)Cc2cc3cc(C(=O)O)ccc3nc2-1 (stereo not drawn)"
assay_target = "UniProt P11387"
reported_measurement = 6.00

[[record]]
molecule = "CC[C@@]1(O)C(=O)OCc2c1cc1n(c2=O)Cc2cc3c(O)cccc3nc2-1"
assay_target = "UniProt P11387"
reported_measurement = 6.06

[[record]]
molecule = "CCC1(O)C(=O)OCc2c1cc1n(c2=O)Cc2cc3c(O)cccc3nc2-1 (racemic)"
assay_target = "UniProt P11387"
reported_measurement = 6.05

[[record]]
molecule = "CCC1(O)C(=O)OCc2c1cc1n(c2=O)Cc2cc3c(OC)cccc3nc2-1 (racemic)"
assay_target = "UniProt P11387"
reported_measurement = 5.80

[[record]]
molecule = "CCC1(O)C(=O)OCc2c1cc1n(c2=O)Cc2cc3c(F)cccc3nc2-1 (stereo not drawn)"
assay_target = "UniProt P11387"
reported_measurement = 6.80

[[record]]
molecule = "CC[C@@]1(O)C(=O)OCc2c1cc1n(c2=O)Cc2cc3c(Cl)cccc3nc2-1"
assay_target = "UniProt P11387"
reported_measurement = 7.07

[[record]]
molecule = "CCC(O)(C(=O)[O-])c1cc2n(c(=O)c1CO)Cc1cc3cc([O-])ccc3nc1-2.[Na+].[Na+] (stereo not drawn)"
assay_target = "UniProt P11387"
reported_measurement = 5.49

[[record]]
molecule = "CCC1(O)C(=O)OCc2c1cc1n(c2=O)Cc2cc3cc4c(cc3nc2-1)OCCO4 (racemic)"
assay_target = "UniProt P11387"
reported_measurement = 6.33


Give pIC50 for each of the items listed below.
1. CC[C@@]1(O)C(=O)OCc2c1cc1n(c2=O)Cc2cc3c(N)c4c(cc3nc2-1)OCO4
2. CC[C@@]1(O)C(=O)OCc2c1cc1n(c2=O)Cc2cc3cc(C#N)ccc3nc2-1
3. CC[C@@]1(O)C(=O)OCc2c1cc1n(c2=O)Cc2cc3cc(C)ccc3nc2-1
4. CCC1(O)C(=O)OCc2c1cc1n(c2=O)Cc2cc3cc(OC(=O)N4CCC(N5CCCCC5)CC4)ccc3nc2-1 (stereo not drawn)

a:
1. 7.32
2. 5.72
3. 6.52
4. 4.68

* * *

Target: DNA topoisomerase 1 (Homo sapiens, UniProt P11387)
Sequence (P11387 whole entry): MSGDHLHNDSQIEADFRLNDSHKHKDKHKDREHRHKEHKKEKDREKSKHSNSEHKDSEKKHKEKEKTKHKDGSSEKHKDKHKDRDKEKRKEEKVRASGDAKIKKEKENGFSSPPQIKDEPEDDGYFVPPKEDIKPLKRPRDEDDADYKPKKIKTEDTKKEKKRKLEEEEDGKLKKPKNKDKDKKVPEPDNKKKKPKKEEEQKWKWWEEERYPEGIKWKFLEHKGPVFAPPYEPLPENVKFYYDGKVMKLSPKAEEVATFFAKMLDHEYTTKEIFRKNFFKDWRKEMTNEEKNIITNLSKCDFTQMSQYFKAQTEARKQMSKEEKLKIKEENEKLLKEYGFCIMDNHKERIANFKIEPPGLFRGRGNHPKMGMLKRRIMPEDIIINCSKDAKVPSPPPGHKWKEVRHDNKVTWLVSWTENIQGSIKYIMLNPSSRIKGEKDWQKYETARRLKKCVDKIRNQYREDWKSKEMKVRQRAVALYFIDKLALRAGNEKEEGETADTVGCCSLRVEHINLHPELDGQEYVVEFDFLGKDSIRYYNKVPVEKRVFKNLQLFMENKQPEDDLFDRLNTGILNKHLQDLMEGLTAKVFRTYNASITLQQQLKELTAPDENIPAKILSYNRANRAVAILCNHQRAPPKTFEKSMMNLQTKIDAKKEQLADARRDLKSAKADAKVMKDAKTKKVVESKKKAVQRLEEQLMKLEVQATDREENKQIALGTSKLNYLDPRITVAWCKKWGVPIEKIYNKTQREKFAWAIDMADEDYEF
Assay: Inhibition of Topoisomerase I by cleavage complex formation in human HL-60 cells
Assay type: cell-based
property_name: IC50

# annotated cases, reported IC50 shown
[[record]]
molecule = "CCC1(O)C(=O)OCc2c1cc1n(c2=O)Cc2cccnc2-1 (racemic)"
property_name = "IC50"
reported_measurement = "> 30 µM"

[[record]]
molecule = "O=C1OCc2c(cc3n(c2=O)Cc2cc4ccccc4nc2-3)C1(O)CCBr (racemic)"
property_name = "IC50"
reported_measurement = "3.1 µM"

[[record]]
molecule = "CC1(O)C(=O)OCc2c1cc1n(c2=O)Cc2cc3ccccc3nc2-1 (racemic)"
property_name = "IC50"
reported_measurement = "4 µM"

[[record]]
molecule = "CC[C@]1(O)C(=O)OCc2c1cc1n(c2=O)Cc2cc3c(N)c4c(cc3nc2-1)OCO4"
property_name = "IC50"
reported_measurement = "> 30 µM"


Note: attention shifts to another entry.
q: Retrieve IC50 measured for CCC1(O)C(=O)OCc2c1cc1n(c2=O)Cc2cc3c(NC(=O)CN)c4c(cc3nc2-1)OCO4 (racemic) and print it.
a: 0.26 µM

// provenance: ChEMBL document CHEMBL1126797
